test system: CCRF-CEM leukemia; experiment: NCI tumour cell line growth inhibition, 48 h; in the data active = GI50 below about 0.43 µM; inactive = the rest
Pick one: 1.0 = active, 0.0 = inactive

>>> class("O=C(NC(=O)c1ccccc1[N+](=O)[O-])Nc1ccc(Oc2ncc(Br)cn2)c(Cl)c1")
1.0
>>> class("COc1cc2c(cc1OCCCCN1CCN(CC(=O)Nc3ccc(Cl)cc3C(=O)c3ccccc3Cl)CC1)N=CC1CCCN1C2=O (stereo not drawn)")
1.0

Alright, here's another molecule for you.
Which outcome did this test record for the molecule O=C(Nc1ccc(F)cc1)Nc1ccc(Cl)c([N+](=O)[O-])c1 ?
0.0

---

test system: HS 578T breast; assay: NCI tumour cell line growth inhibition, 48 h
measurement kind: TGI

>>> value_observed("Cc1ccc(N=NC(=Nc2ccccc2)c2ccc(N(CCC#N)CCC#N)cc2)cc1")
"> 100 µM"
>>> value_observed("CCN(CC)N=Nc1c(C(N)=O)n[nH]c1C")
"> 100 µM"

Kindly review the next molecule as well.
Hello, please tell me recorded TGI for this one: CC(C)(C)OC(=O)NCCCCC1NC(=O)[C@@H]2Cc3c([nH]c4ccccc34)C(C3CCCCC3)N2C1=O (stereo partly drawn)
> 100 µM

---

Each entry below lists one item and its recorded TGI value.
tested on: NCI-H23 lung; experiment: NCI tumour cell line growth inhibition, 48 h

Some entries whose results are on file:
>>> value_observed("CCOC(=O)/C=C/CC(C)(C)CCOC(C)=O")
"> 10 µM"
>>> value_observed("COC(=O)C([C@H](NC1(c2ccccc2)c2ccccc2-c2ccccc21)C(=O)OC)N(NC(=O)OCc1ccccc1)C(=O)OCc1ccccc1 (mixture of isomers)")
"> 100 µM"

Next up:
Give NCI-H23 lung TGI for the following compound: Cc1cc(N(CCC#N)CCC#N)ccc1N=Nc1ccc(S(N)(=O)=O)cc1
> 100 µM

---

Here the recorded TGI is given for each entry.
tested on: NCI-H522 lung; assay: NCI tumour cell line growth inhibition, 48 h

Recorded TGI, per entry:
>>> value_observed("Cc1nc2sccn2c1-c1csc(Nc2ccccc2Cl)n1")
"15.7 µM"
>>> value_observed("[N-]=[N+]=NC[C@H]1OCO[C@H](CN=[N+]=[N-])[C@@H](OCCOCCCl)[C@@H]1OCCOCCCl")
"> 100 µM"
>>> value_observed("Nc1nc(-n2c(-c3ccccc3)nc3c(Br)cc(Br)cc3c2=O)nnc1-c1cccc(Cl)c1Cl")
"> 100 µM"
>>> value_observed("NC1=NCCC1(c1ccccc1)c1ccccn1 (stereo not given)")
"> 100 µM"

For the next question, use this compound.
Please give the documented TGI of CC1CCC(n2c3cnccc3c3cnc(Nc4ccc5c(n4)CCN(C(=O)CO)C5)nc32)CC1 (stereo not given)
> 100 µM

---

test system: TK-10 renal; assay: NCI tumour cell line growth inhibition, 48 h
Readings of TGI for the listed compounds

Give TGI for COc1cc2nc3n(c(=O)c2cc1OC)-c1ccc([N+](=O)[O-])cc1C3=O
> 100 µM

Tell me TGI reported for CC(=O)[CH-]C(=O)c1ccccc1.CC(=O)[CH-]C(=O)c1ccccc1.CN(C)c1ccc([O-])cc1.CN(C)c1ccc([O-])cc1.Cl.[Ti+4]
> 100 µM

Respond only with TGI recorded for Cc1ccnc2c1ccc1c(C)ccnc12
14.6 µM

Report TGI for CC1(C)C(=O)/C=C\C(=O)C(C)(C)C2=CC=C(O2)C(C)(C)C(=O)/C=C\C(=O)C(C)(C)C2=CC=C1O2
> 100 µM

Provide measured TGI value, entry: O=C1C=CC(=O)c2c1ccc1c3ccccc3n(CCCCCCCCCCCCn3c4ccccc4c4ccc5c(c43)C(=O)C=CC5=O)c21
> 100 µM

# return recorded TGI for input Cc1c(O)c(O)cc[n+]1C1OC(CO)C(O)C1O (configuration not stated)
> 100 µM

Supply recorded TGI for CCN(CC)N=Nc1c(C(N)=O)n[nH]c1C here.
> 100 µM

Quick one: give measured TGI for COc1cc(C(=O)N(C(=S)OCc2ccccn2)c2ccccc2)cc(OC)c1OC
> 100 µM

Identify measured TGI associated with COc1ccc(C2CC(c3c(O)ccc4ccccc34)=NN2C(C)=O)cc1OC (configuration not stated)
> 100 µM

Could you please provide reported TGI for OC1CSSC1Cn1cnc2c(Nc3ccc(OCc4cccc(F)c4)c(Cl)c3)ncnc21 (configuration not stated) ? Thanks!
5.01 µM

Give the reported value of TGI for this record: O=C(N/N=C(/COc1ccc(Cl)cc1)N=Cc1ccncc1)c1ccncc1
> 100 µM
